Assay: Reactivity of covalent reactive group using GSH reaction assessed as pseudo-first-order reaction at 60 degC by mass spectrometry
Below, each entry is listed with its recorded K.
Express the result in ×10⁻³ /min but write the number alone.

Here are 3 compounds together with their reported answers.
               compound  units_text  reported
0  C=C(C)C(=O)Nc1ccccc1  ×10⁻³ /min       0.2
1     C=C(C)S(=O)(=O)NC  ×10⁻³ /min       0.4
2        CNC(=O)C1=CCC1  ×10⁻³ /min       0.6

The record that follows has no K shown yet.
Output measured K for this item: CNC(=O)C(C)Cl (stereo unspecified) 0.6
